# Lookup of reported Vif-A3G-Luc Activity (% of RLUs compared to DMSO treated control) keyed by entry
Tested on: A3G-Luc/Vif
Experiment: A3G-Luc/Vif luciferase screen in 293T cells stably co-expressing A3G-Luc and HIV-1 Vif
Type: cell-based, human
Conditions: 10 μM, 48 hrs, DMSO = 100%
Return type: number; implicit unit %.

The cases that follow already have their Vif-A3G-Luc Activity (% of RLUs compared to DMSO treated control) on record.
# Vif-A3G-Luc Activity (% of RLUs compared to DMSO treated control) of COc1ccc(C(=O)Nc2ccc(OC)c(OC)c2)cc1NC(=O)C(C)C = 91

The molecule listed as COc1ccc(CNC(=O)c2ccc(OC)c(NC(=O)C(C)C)c2)cc1 shows Vif-A3G-Luc Activity (% of RLUs compared to DMSO treated control) equal to 87

Vif-A3G-Luc Activity (% of RLUs compared to DMSO treated control) reported for this molecule COc1ccc(C(=O)Nc2ccc(Cl)c(Cl)c2)cc1NC(=O)c1ccccc1 : 94

Query COc1ccc(C(=O)Nc2ccc(Cl)c(Cl)c2)cc1NC(=O)c1cccnc1 yields Vif-A3G-Luc Activity (% of RLUs compared to DMSO treated control) of 91

Value of Vif-A3G-Luc Activity (% of RLUs compared to DMSO treated control) reported for the molecule COc1ccc(C(=O)Nc2ccc3c(c2)OCO3)cc1NC(=O)C(C)C is 145

Here is the next item to consider.
Vif-A3G-Luc Activity (% of RLUs compared to DMSO treated control) measured on COc1ccc(C(=O)NCc2ccc(F)cc2)cc1NC(=O)C(C)C = 76
